B1: tRNA (parent)
chain: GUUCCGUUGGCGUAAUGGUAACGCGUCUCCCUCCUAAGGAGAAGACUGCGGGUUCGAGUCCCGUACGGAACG

Variants of: B1
Assay: yeast fitness relative to wild type (ratio to wild type); higher = fitter; tRNA-Arg(CCU), competitive growth, 37 C, YPD
Variants at the floor of the assay were thinned out.

biopolymer.sequence	operator.symbol	yeast fitness
GUUCCGUUGGCGUAAUGGUAACGCGUCUCCCUCCUAAGGAGAAGACUGCGUGUUCGAGUCCCGUACGGAGCG [G51U A70G]	=	0.707
GUUCCGUUGGCGUAAGGGUAACGCGUCUCCCUCCUAAGGAGAUGACUGCCGGUUCGAGUCCCGUACGGAACG [U16G A43U G50C]	=	0.576
GUUACGAGGGCGUAAUGGUAACGCGUCUCCCUCCUAAGGAGAAGACUGCGGGUUCGAGUCCCGUACGGAACG [C4A U7A U8G]	≤	0.5
GUUACGUUGCCGUAAUGGUAACGCGUCUCCCUUCUAAGGAGAAGAGUGCGGGUACGAGUCCCGUACGGAACG [C4A G10C C33U C46G U54A]	≤	0.5
GUUCCGUUGGCGUAAUGGUAACGCGUCUCCCUCCUAAGGAGAAGAUUGCGGGUUCGAGUCCCGUAGGGAACG [C46U C66G]	=	0.949
GUUCCGUUGGCGUAAUGGUAACGCGCCUCCCUCCUAAGGAGAAGAUUGCGGGUUCGAGUCCCGUACGGAACG [U26C C46U]	=	0.928
GUUGCGUUGGCGUAAUGGUAACGCGUCUCCCUCCUAAGGAGAAGACUGCGGGUUCGUGCCCCGUACAGAACG [C4G A57U U59C G67A]	≤	0.5
GUUCCGUAGGCGUAAUGGUCACGCGUCUCCAUCCUAAGGAGAAGACUGCGGGUUCGCGUCCCGUAAGGUACG [U8A A20C C31A A57C C66A A69U]	≤	0.5
GUUCCAUUGGCAUAAUGGUAACCCGUCUCCCUCCUAAGGAGAAGACUGGGGGGUCGGGUCCCGUACGGAACG [G6A G12A G23C C49G U53G A57G]	≤	0.5
GUUCCGUUGGCGUAAUGGUAACGCGUCUCCCUCCUAAGGAGAAGCCUGCGGGUUCGAGUCACGUACGGAACG [A45C C61A]	=	0.797
GUUACGUUGGCGUAAUGGUAACGCGUCUCCCUCCUAAGGAGAAGACUGCGGGAUCGAGUCCCGUACGGAACG [C4A U53A]	=	0.769
